assay: Allosteric enhancer activity at human adenosine A1 receptor expressed in CHO cell membranes assessed as [3H]NECA affinity constant at 1 uM (Kd = 0.87 +/- 0.04 nM)
measured attribute: pKd
Here pKd is given on a logarithmic scale as minus log10 of the concentration in mol/L.

Query string: Query: pKd; subject: `CC(C)(C)Cc1c(C#Cc2ccccc2)sc(N)c1C(=O)c1ccc(Cl)cc1`
Result string: 9.34
